- System: OVCAR-3
- assay: NCI tumour cell line growth inhibition, 48 h
The source made the active and inactive calls. Cut-off read from the data, not from the text of the source: active = GI50 up to about 1.1 µM and inactive = higher.
endpointName: GI50

# map each compound to its GI50
1. CC(C)[Si]1(C(C)C)OCC2OC(n3c(C(=O)c4ccccc4)cc(=O)[nH]c3=O)CC2O[Si](C(C)C)(C(C)C)O1 (stereo not drawn)
2. [N-]=[N+]=CC(=O)CCC(NC(=O)C(CCC(=O)C=[N+]=[N-])NC(=O)CCC(N)C(=O)O)C(=O)O (stereo not drawn)

1: 2.08 µM (inactive); 2: > 100 µM (inactive)

Entry COc1cccc(C2c3cc4c(cc3OC(NNS(=O)(=O)c3ccc(C)cc3)C2C)OCO4)c1OC (stereo not drawn) : reported GI50 = ?
1.75 µM (inactive)
